Biological target: T1, human CD166 protein (human, UniProt Q13740 28-526)
T1 chain: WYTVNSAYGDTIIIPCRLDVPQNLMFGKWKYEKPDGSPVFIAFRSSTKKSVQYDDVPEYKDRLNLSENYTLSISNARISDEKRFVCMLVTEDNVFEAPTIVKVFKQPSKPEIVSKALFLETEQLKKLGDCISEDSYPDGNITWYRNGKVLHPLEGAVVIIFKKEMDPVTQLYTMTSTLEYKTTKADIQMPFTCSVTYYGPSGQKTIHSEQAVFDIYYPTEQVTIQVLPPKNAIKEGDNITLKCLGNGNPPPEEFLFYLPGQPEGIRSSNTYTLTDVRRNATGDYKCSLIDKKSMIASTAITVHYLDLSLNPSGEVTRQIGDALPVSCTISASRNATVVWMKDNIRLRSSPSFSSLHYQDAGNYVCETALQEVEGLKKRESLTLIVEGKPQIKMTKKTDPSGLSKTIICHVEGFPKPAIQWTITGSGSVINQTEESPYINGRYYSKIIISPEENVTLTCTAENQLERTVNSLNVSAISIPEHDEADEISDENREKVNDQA
Assay: FACS; apparent Kd
reported metric: Kd

Would you please look over these solved cases?
# binder, Kd
records = [
    ("CD166-M9_vk3a/HcB (antibody, V domains shown) VH: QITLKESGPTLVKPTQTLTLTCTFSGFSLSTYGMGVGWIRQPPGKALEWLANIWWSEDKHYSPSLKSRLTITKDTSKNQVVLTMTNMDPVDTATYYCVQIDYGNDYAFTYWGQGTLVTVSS VL: DIVMTQSPLSLPVTPGEPASISCRSSQSLLHSNGITYLYWYLQKPGQSPQLLIYQMSNRASGVPDRFSGSGSGTDFTLKISRVEAEDVGVYYCAQNLELPYTFGQGTKLEIK", "2.88 nM"),
    ("CD166-M9_vK3b/HcC (antibody, V domains shown) VH: QITLKESGPTLVKPTQTLTLTCTFSGFSLSTYGMGVGWIRQPPGKALEWLANIWWSEDKHYSPSLKSRLTITKDTSKNQVVLTITNVDPVDTATYYCVQIDYGNDYAFTYWGQGTLVTVSS VL: DIVMTQSPLSLPVTPGEPASISCRSSQSLLHSNGITYLYWYLQKPGQSPQLLIYQMSNRASGVPDRFSSSGSGTDFTLKISRVEAEDVGVYYCAQNLELPYTFGQGTKLEIK", "3.19 nM"),
]

Below: the item to evaluate.
Quick one: Kd for CD166-M9_vK2/HcC (antibody, V domains shown) VH: QITLKESGPTLVKPTQTLTLTCTFSGFSLSTYGMGVGWIRQPPGKALEWLANIWWSEDKHYSPSLKSRLTITKDTSKNQVVLTITNVDPVDTATYYCVQIDYGNDYAFTYWGQGTLVTVSS VL: DIVMTQSPLSLPVTPGEPASISCRSSKSLLHSNGITYLYWYLQKPGQSPQLLIYQMSNLASGVPDRFSSSGSGTDFTLKISRVEAEDVGVYYCAQNLELPYTFGQGTKLEIK ?
2.5 nM

Values from patent US20160355587A1
